Give Ki for every item shown.
# SYSTEM TESTED: Prostaglandin F2-alpha receptor (Bos taurus)
# EXPERIMENT: Inhibitory Binding constant (n=2) to Prostanoid FP receptor expressed in bovine corpus luteum
Write down the numeric answer in µM and omit the unit.

## Task If you can, please state the reported Ki value of "O=C(O)CCC/C=C\C[C@@H]1[C@@H](/C=C/[C@H](O)COc2cccc(Cl)c2)[C@H](O)CC[C@@H]1O" .
## Result 56

## Task Entry to check: "O=C(O)CCC/C=C\C[C@@H]1[C@@H](/C=C/[C@@H](O)COc2cccc(Cl)c2)[C@H](O)CC[C@@H]1O"
## Result 1.9
